# Tested on: U2OS
# assay-text: Multiplex assay against U2OS
# Assay type: toxicity, cell-based
# condition-context: human, 48 h, 10 µM, compound concentration 10 uM, replicate 2
Please mark yes (1) if the recorded Population Fragmented Nuclei (%) is equal to or greater than 20%, and no (0) if it falls below.

> print(dat)
                                   compound  target.or.system  assigned.category
1  Nc1ccc(C(=O)Nc2cccc(-c3nc(N4CCOCC4)c4oc5ncccc5c4n3)c2)cn1              U2OS            yes (1)
2  C1=N/C2=N/c3ccc(OCCN4CCCC4)c(c3)COC/C=C\COCc3cccc(c3)C(=C1)N2              U2OS             no (0)
3  CC(=O)c1cc(-c2cc(C(=O)NC3CC3)ccc2C)c2ncccn12              U2OS             no (0)
4  COc1cc2c(NC3CCN(C(C)C)CC3)nc(N3CCC(F)(F)CC3)nc2cc1OCCCN1CCCC1              U2OS             no (0)
5  CCc1cc2c(cc1CC)CC(NC[C@H](O)c1ccc(O)c3[nH]c(=O)ccc13)C2 [INDACATEROL]              U2OS             no (0)
6  O=C(O)c1ccc2cc(-c3ccc(O)c(C45CC6CC(CC(C6)C4)C5)c3)ccc2c1 [O-DEMETHYLATED ADAPALENE]              U2OS             no (0)
7  Cc1cc2c(cc1N1C(=O)c3cccc4c(CCCO)ccc(c34)C1=O)n(C)c(=O)n2C              U2OS            yes (1)
8  Cc1nc(Cc2cccc(C(F)(F)F)c2)sc1-c1ccc(C(N)=O)nc1 [TP-024n]              U2OS             no (0)
9  Nc1nc2c(c(N3CCNCC3)n1)CCC1=C2[C@@H]2CCCC[C@@H]2O1              U2OS             no (0)
